- Target: human muscarinic M2 receptor (Homo sapiens)
- Sequence (P08172 whole entry): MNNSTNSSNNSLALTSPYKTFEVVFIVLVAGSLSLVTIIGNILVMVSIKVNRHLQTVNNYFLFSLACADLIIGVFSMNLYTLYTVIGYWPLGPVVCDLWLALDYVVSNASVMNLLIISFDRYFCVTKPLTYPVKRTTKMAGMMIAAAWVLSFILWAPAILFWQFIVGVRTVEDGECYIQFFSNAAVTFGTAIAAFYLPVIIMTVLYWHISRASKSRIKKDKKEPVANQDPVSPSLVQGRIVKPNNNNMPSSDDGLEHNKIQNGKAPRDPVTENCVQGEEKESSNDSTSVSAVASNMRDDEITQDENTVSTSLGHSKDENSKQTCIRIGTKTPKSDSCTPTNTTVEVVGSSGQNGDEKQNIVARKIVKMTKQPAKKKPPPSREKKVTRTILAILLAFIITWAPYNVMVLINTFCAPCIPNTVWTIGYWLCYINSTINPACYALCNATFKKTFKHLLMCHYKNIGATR
- Test: Phospho-ERK1/2 assay, muscarinic M2
- Format: cell-based
- Condition: CHO, read-out: % Emax cf. ACh (M2)
Measurement Kind: Emax (%)

I = CCOC(=O)N1CCCC(N2CCC(F)(C(=O)NCC3CCCC3)CC2)CC1 (stereo not drawn)
II = C#CCOC(=O)N1CCCC(N2CCC(C(=O)NCC(C)C)CC2)CC1 (stereo not drawn)
IN: Please indicate which item has the smaller measured Emax: I versus II Refer to your chosen item by its label in the answer.
OUT: II
(II: 5%, I: 9%)

----------
- Target: human muscarinic M4 receptor (Homo sapiens, UniProt P08173)
- Construct: expressed in transfected cells
- Sequence (P08173 whole entry): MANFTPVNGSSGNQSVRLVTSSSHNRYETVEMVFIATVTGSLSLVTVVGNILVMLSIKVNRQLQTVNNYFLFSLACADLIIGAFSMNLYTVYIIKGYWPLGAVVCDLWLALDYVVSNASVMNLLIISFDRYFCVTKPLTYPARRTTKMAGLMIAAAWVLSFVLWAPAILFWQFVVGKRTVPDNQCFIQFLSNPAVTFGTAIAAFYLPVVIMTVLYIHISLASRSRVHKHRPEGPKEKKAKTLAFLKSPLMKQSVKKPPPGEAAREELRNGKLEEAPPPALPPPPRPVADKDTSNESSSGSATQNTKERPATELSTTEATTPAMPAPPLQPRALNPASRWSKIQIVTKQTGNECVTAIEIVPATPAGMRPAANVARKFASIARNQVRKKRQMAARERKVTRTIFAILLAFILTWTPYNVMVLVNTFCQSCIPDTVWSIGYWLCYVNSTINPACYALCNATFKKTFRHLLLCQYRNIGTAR
- Test: Phospho-ERK1/2 assay, muscarinic M4
- Type: cell-based
- Condition: CHO, read-out: % Emax cf. ACh (M4)
Measurement Kind: Emax (%)

INSERT INTO results (compound, measurement_kind, units_of_measure, numeric_value) VALUES
  ('CCOC(=O)N1CCCC(N2CCC(C(=O)NCC(C)C)CC2)CC1 (stereo not drawn)', 'Emax', '%', 76),
  ('CCOC(=O)N1CCC[C@@H](N2CCC(C(=O)NC3(C)CCC3)CC2)CC1', 'Emax', '%', 66),
  ('C#CCOC(=O)N1CCCC(N2CCC(C(=O)NCC(C)C)CC2)CC1 (stereo not drawn)', 'Emax', '%', 82),
  ('CCOC(=O)N1CCC[C@H](N2CCC(C(=O)NC3(C)CCC3)CC2)CC1', 'Emax', '%', 97),
  ('CCOC(=O)N1CCC[C@@H](N2CCC(C(=O)NC(C)(C)C)CC2)CC1', 'Emax', '%', 64),
  ('CCOC(=O)N1CCC(N2CCC(C(=O)NC(C)(C)C(C)C)CC2)CC1', 'Emax', '%', 85);

----------
- Target: human muscarinic M2 receptor (Homo sapiens)
- Test: Phospho-ERK1/2 assay, muscarinic M2
- Type: cell-based
- Condition: CHO, read-out: % Emax cf. ACh (M2)
Measurement Kind: Emax (%)

Completed entries (count: 5):
INSERT INTO measurements (compound, numeric_value) VALUES
  ('CCOC(=O)N1CCCC(N2CCC(C(=O)NCC(C)(C)C)CC2)CC1 (stereo not drawn)', 6),
  ('CCOC(=O)N1CCCC(N2CCC(C(=O)NCC(C)CC)CC2)CC1 (stereo not drawn)', 3),
  ('CCOC(=O)N1CCCC(N2CCC(C#N)(C(=O)NC3(C)CCC3)CC2)CC1 (stereo not drawn)', 16),
  ('CCOC(=O)N1CCCC(N2CCC(C(=O)NC3(C)CCCCC3)CC2)CC1 (stereo not drawn)', 0),
  ('CCOC(=O)N1CCC[C@H](N2CCC(C(=O)NC3(C)CCC3)CC2)CC1', 7);

a = CCOC(=O)N1CCCC(N2CCC(C(=O)NC(C)(C)C(C)C)CC2)CC1 (stereo not drawn)
b = CCOC(=O)N1CCC[C@H](N2CCC(C(=O)NCC(C)C)CC2)CC1
c = CCOC(=O)N1CCCC(N2CCC(C(=O)NC3CCCC3)CC2)CC1 (stereo not drawn)
d = CCOC(=O)N1CCCC(N2CCC(F)(C(=O)NC(C)(C)C3CC3)CC2)CC1 (stereo not drawn)
IN: Kindly order the items shown according to Emax, from the highest value down. Output spec: labels arranged per the requested ranking.
OUT: d, b, c, a

----------
- Target: human muscarinic M4 receptor (Homo sapiens, UniProt P08173)
- Construct: expressed in transfected cells
- Test: Phospho-ERK1/2 assay, muscarinic M4
- Type: cell-based
- Condition: CHO cells expressing human M4; phospho-ERK1/2 Alphascreen; read-out: pEC50 M4 (converted)
Measurement Kind: EC50 (nM)

A = CCOC(=O)N1CCCC(N2CCC(C(=O)N(CC)CC3CC3)CC2)CC1 (stereo not drawn)
B = CCOC(=O)N1CCC[C@H](N2CCC(C(=O)NC(C)(C)C)CC2)CC1
IN: Sorting ascending by EC50, which comes first: A or B ? Answer with the label corresponding to your selection.
OUT: A
(A: 309 nM, B: 501 nM)

A = CCOC(=O)N1CCC(N2CCC(C(=O)NC(C)(C)C(C)C)CC2)CC1
B = CCOC(=O)N1CCCC(N2CCC(C(=O)NCC3(CC)CCC3)CC2)CC1 (stereo not drawn)
IN: Could you kindly indicate whether A or B has the higher EC50 value? Selection: enter the item's label.
OUT: A

A = CCOC(=O)N1CCCC(N2CCC(C)(C(=O)NCC(C)C)CC2)CC1 (stereo not drawn)
B = CCOC(=O)N1CCCC(N2CCC(F)(C(=O)NC3(C)CCC3)CC2)CC1 (stereo not drawn)
IN: Which value of EC50 is numerically greater: that of A or that of B ? Give the label of your selection.
OUT: A
(A: 1350 nM, B: 603 nM)

----------
- Target: human muscarinic M4 receptor (Homo sapiens, UniProt P08173)
- Construct: expressed in transfected cells
- Test: Phospho-ERK1/2 assay, muscarinic M4
- Format: cell-based
- Condition: CHO, read-out: % Emax cf. ACh (M4)
Measurement Kind: Emax (%)

INSERT INTO assay_data (molecule, target, measurement_kind, numeric_value) VALUES
  ('CCOC(=O)N1CCCC(N2CCC(C)(C(=O)NCC(C)C)CC2)CC1 (stereo not drawn)', 'human muscarinic M4 receptor (Homo sapiens, UniProt P08173)', 'Emax', 46),
  ('CCOC(=O)N1CCCC(N2CCC(C(=O)NC3(CC)CCC3)CC2)CC1 (stereo not drawn)', 'human muscarinic M4 receptor (Homo sapiens, UniProt P08173)', 'Emax', 97),
  ('CCOC(=O)N1CCCC(N2CCC(F)(C(=O)NC3(C)CCCC3)CC2)CC1 (stereo not drawn)', 'human muscarinic M4 receptor (Homo sapiens, UniProt P08173)', 'Emax', 73),
  ('CCOC(=O)N1CCCC(N2CCC(C(=O)NC3(C(F)(F)F)CCC3)CC2)CC1 (stereo not drawn)', 'human muscarinic M4 receptor (Homo sapiens, UniProt P08173)', 'Emax', 55),
  ('CCOC(=O)N1CCCC(N2CCC(C(=O)NC3(C)CCC3)CC2)CC1 (stereo not drawn)', 'human muscarinic M4 receptor (Homo sapiens, UniProt P08173)', 'Emax', 88),
  ('CCOC(=O)N1CCCC(N2CCC(F)(C(=O)NCC3CC3)CC2)CC1 (stereo not drawn)', 'human muscarinic M4 receptor (Homo sapiens, UniProt P08173)', 'Emax', 84),
  ('CCOC(=O)N1CCCC(N2CCC(F)(C(=O)NC(C)(C)CC)CC2)CC1 (stereo not drawn)', 'human muscarinic M4 receptor (Homo sapiens, UniProt P08173)', 'Emax', 88),
  ('CCOC(=O)N1CCC[C@H](N2CCC(C(=O)NC(C)(C)C)CC2)CC1', 'human muscarinic M4 receptor (Homo sapiens, UniProt P08173)', 'Emax', 104);

a = CCOC(=O)N1CCCC(N2CCC(C(=O)NCC3CC3)CC2)CC1 (stereo not drawn)
b = CCOC(=O)N1CCCC(N2CCC(C(=O)NC3CCCC3)CC2)CC1 (stereo not drawn)
IN: Lab note: check whether a or b shows the higher recorded Emax. # answer = label of selected item
OUT: b
(b: 104%, a: 67%)

A = CCOC(=O)N1CCCC(N2CCC(F)(C(=O)NCC3CCCC3)CC2)CC1 (stereo not drawn)
B = CCOC(=O)N1CCCC(N2CCC(C)(C(=O)NC3(C)CCC3)CC2)CC1 (stereo not drawn)
IN: Could you check which of A and B has a smaller value for Emax? Your answer should be the label of the entry you select.
OUT: B
(B: 51%, A: 90%)

I = CCOC(=O)N1CCC[C@@H](N2CCC(C(=O)NCC(C)C)CC2)CC1
II = CCOC(=O)N1CCCC(N2CCC(C(=O)NC3(C)CCCCC3)CC2)CC1 (stereo not drawn)
IN: Returns the identifier with the smallest measured Emax among I and II . Response format: the label of the selected entry.
OUT: II
(II: 46%, I: 81%)

----------
- Target: human muscarinic M4 receptor (Homo sapiens, UniProt P08173)
- Construct: expressed in transfected cells
- Test: Phospho-ERK1/2 assay, muscarinic M4
- Assay type: cell-based
- Condition: CHO cells expressing human M4; phospho-ERK1/2 Alphascreen; read-out: pEC50 M4 (converted)
Measurement Kind: EC50 (nM)

The examples below pair each entry with its known result.
INSERT INTO assay_data (molecule, measurement_kind, units_of_measure, numeric_value) VALUES
  ('CCOC(=O)N1CCCC(N2CCC(C(=O)NCC3CCC3)CC2)CC1 (stereo not drawn) [Example 11]', 'EC50', 'nM', 427),
  ('CCOC(=O)N1CCCC(N2CCC(F)(C(=O)NC(C)(C)C(C)C)CC2)CC1 (stereo not drawn) [Example 44]', 'EC50', 'nM', 417),
  ('CCOC(=O)N1CCCC(N2CCC(F)(C(=O)NC3(C)CCCC3)CC2)CC1 (stereo not drawn) [Example 48]', 'EC50', 'nM', 537),
  ('CCOC(=O)N1CCCC(N2CCC(C(=O)NCC3CC3)CC2)CC1 (stereo not drawn) [Example 15]', 'EC50', 'nM', 550);

a = CCOC(=O)N1CCCC(N2CCC(C(=O)NCC(C)C)CC2)CC1 (stereo not drawn) [Example 6]
b = CC#CCOC(=O)N1CCCC(N2CCC(OC)(C(=O)NC3(C)CCC3)CC2)CC1 (stereo not drawn) [Example 80]
c = CCOC(=O)N1CCCC(N2CCC(C(=O)NC3(CC)CCC3)CC2)CC1 (stereo not drawn) [Example 74]
d = CCOC(=O)N1CCCC(N2CCC(C(=O)NC(C)(C)C(C)C)CC2)CC1 (stereo not drawn) [Example 31]
IN: List from greatest to least EC50. A ranking is expressed here by listing the labels in the requested order.
OUT: a, b, c, d
(a: 1050 nM, b: 525 nM, c: 282 nM, d: 123 nM)
